# ASSAY SYSTEM: Shiga toxin 2 (Escherichia coli O157:H7) (UniProt P09385+P09386)
# TEST NAME: E. coli 0.157:H7 Shiga Toxin SOP - stx2 screening assay
# Type: functional
# Set-up: scale not given: direction of the effect not stated beside the values
# CONDITION DETAILS: 30 µM
ENDPOINT: Percent Effect (%)
Please give a number only; it is taken to be in %.

O=C(c1ccnnc1)N1C[C@@H]2OCCN(CCN3CCCC3)[C@@H]2C1 ... -4.98
COc1cccc(N2CCN(Cc3ccc(NC(C)=O)cc3)CC2=O)c1 ... -2.21
O=C(c1ccccn1)N1C[C@@H]2CC[C@H](C1)N(C(=O)CCc1ccsc1)C2 ... -55.7
CCc1nc(N)sc1C(=O)N1CCCC(CCc2ccccc2C)C1 (stereo unspecified) ... -7.07
c1nc(CCC2CCCN2)cc(N2CCCOCC2)n1 (stereo unspecified) ... -10.1

Exercise: I am curious: what Percent Effect value has been reported for Cc1noc(C(C)C)c1C(=O)NS(=O)(=O)c1ccc(Cl)cc1 ?
Key: 13.7

---

# ASSAY SYSTEM: Aspartate--tRNA(Asp/Asn) ligase (Mycobacterium tuberculosis (strain ATCC 25618 / H37Rv)) (UniProt P9WFW3); further: in the data most compounds retested in dose-response had high values
# Sequence (P9WFW3 whole entry): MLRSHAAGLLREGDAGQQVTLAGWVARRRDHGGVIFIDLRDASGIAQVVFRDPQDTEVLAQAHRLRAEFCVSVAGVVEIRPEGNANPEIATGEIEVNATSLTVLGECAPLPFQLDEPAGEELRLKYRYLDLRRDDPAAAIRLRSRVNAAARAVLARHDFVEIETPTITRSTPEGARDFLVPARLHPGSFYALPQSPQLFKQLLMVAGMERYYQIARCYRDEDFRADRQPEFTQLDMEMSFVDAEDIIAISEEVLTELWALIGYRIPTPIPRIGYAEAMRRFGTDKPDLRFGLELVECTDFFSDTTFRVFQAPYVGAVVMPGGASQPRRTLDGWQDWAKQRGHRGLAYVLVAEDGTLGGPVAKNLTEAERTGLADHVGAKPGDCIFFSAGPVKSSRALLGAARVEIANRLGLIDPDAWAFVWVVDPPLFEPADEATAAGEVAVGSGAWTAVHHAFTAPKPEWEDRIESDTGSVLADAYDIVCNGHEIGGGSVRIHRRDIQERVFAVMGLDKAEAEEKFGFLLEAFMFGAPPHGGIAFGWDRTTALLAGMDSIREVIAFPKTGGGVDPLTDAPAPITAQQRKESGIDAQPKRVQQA
# TEST NAME: Assay for Asp RNA synthetase-1 from Mycobacterium tuberculosis
# Type: functional
# Design: scale not given: direction of the effect not stated beside the values
# CONDITION DETAILS: 30 µM
Listed below: Percent Effect values for each entry.
Please give a number only; it is taken to be in %.

Record excerpt, results attached:
Cc1nnc2n1CCN(CCOc1ccccc1)C2 ... -6.3
CC(=O)N(Cc1noc(C)n1)C1CCN(Cc2ccon2)C1 (stereo unspecified) ... -1.5
CNC(=O)N1C[C@H]2C[C@H](C(=O)Nc3ccccc3)[C@@H](C1)O2 ... 2.94
COC(=O)c1cc(C(=O)N2CCCCCC2)n(-c2ccccc2)n1 ... -0.856
Cc1occc1C(=O)N1CCc2ncnc(-c3cnn(C)c3)c2CC1 ... -0.55

Exercise: I am curious: what Percent Effect value has been reported for O=C(CC1CCCCC1)N1CCN(C(=O)NCc2ccccn2)CC1 ?
Key: 2.1

Exercise: I am curious: what Percent Effect value has been reported for O=C(CCCc1nnc(-c2ccccc2)o1)N1CCN(CCO)CC1 ?
Key: 2.54

Exercise: I am curious: what Percent Effect value has been reported for O=C(c1cccn1Cc1cccs1)N1CCN(C(=O)C2CC2)CC1 ?
Key: 4.89

---

Listed below: Percent Effect values for each entry.
# ASSAY SYSTEM: Shiga toxin 2 (Escherichia coli O157:H7) (UniProt P09385+P09386)
# TEST NAME: E. coli 0.157:H7 Shiga Toxin SOP - stx2 screening assay
# Assay type: functional
# Parameters: scale not given: direction of the effect not stated beside the values
# CONDITION DETAILS: 30 µM
Please give a number only; it is taken to be in %.

Record excerpt, results attached:
CC(=O)N1CCC2(CCCN(Cc3ccc(Cl)c(C(F)(F)F)c3)C2)C1 (stereo unspecified) ... 4.87
Cc1cccc(CS(=O)(=O)NCC(O)Cc2ccccc2)c1 (stereo unspecified) ... 0.958
Cn1cc(C(=O)N2CC[C@@H]3[C@@H]2CCN3Cc2cccc(F)c2)cn1 ... 0.579
CC(C)CN(Cc1nc2c(cnn2C)c(=O)[nH]1)C(C)C ... 0.929
Cc1ccc(C)c(C(C(=O)O)N2CCCN(Cc3ccccn3)CC2)c1 (stereo unspecified) ... 2.34
O=C(NCC1CCOCC1)[C@H]1C[C@@H]2CCN(Cc3ccncc3)C[C@@H]2O1 ... -19.5
CN1CCOC(CN(C(=O)Cc2ccccc2F)c2nccs2)C1 (stereo unspecified) ... -16
COc1ccc(C(CO)NC(=O)Nc2cccnc2)cc1 (stereo unspecified) ... -19.2

Exercise: I am curious: what Percent Effect value has been reported for CC(=O)NCC(=O)N1CC[C@H](OCC2CC2)[C@@H]1Cc1cccnc1 ?
Key: 5.09

Exercise: I am curious: what Percent Effect value has been reported for O=S(=O)(NCC1CCOc2ccccc2C1)N1CCOCC1 (stereo unspecified) ?
Key: -16

Exercise: I am curious: what Percent Effect value has been reported for Cc1cccc(-n2c(C)cc(C(=O)N3CCn4c(C)nnc4C3)c2C)c1 ?
Key: 36.2
